molecular target: DLK (Homo sapiens (Human), UniProt Q12852); experiment: DLK TR-FRET Inhibition Assay; conditions: N-terminally GST-tagged DLK (catalytic domain amino acid 1-520), MKK4 K131M substrate, 30 μM ATP; read-out: DLK HTRF Ki
Sequence (Q12852 1-520): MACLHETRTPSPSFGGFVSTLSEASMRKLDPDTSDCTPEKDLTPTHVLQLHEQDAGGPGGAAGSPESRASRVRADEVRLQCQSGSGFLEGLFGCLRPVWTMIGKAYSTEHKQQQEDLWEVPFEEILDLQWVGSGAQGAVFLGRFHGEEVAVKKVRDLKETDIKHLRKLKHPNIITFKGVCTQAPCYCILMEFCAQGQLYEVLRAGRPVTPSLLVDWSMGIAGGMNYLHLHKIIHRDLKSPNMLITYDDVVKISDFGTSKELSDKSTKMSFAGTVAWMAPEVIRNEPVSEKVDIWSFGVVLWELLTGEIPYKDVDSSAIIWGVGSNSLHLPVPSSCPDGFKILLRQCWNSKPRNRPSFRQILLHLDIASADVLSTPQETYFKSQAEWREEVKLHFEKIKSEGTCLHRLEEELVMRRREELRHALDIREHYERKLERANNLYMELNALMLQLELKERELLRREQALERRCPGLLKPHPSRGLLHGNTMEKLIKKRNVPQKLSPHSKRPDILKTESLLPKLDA
Recorded endpoint: pKi
On this scale, pKi is minus log10 of a concentration expressed in M (mol/L).

INSERT INTO results (compound, numeric_readout) VALUES
  ('CC1(C)OCCn2c1nc1c(N3CC4CCOC4C3)nc(-c3cnc(N)nc3)nc12 (stereo not shown) [Example 14]', 6.00),
  ('CC1(C)OCCn2c1nc1c(N3CC4CC4C3)nc(-c3cnc(N)nc3)nc12 (stereo not shown) [Example 5]', 6.48),
  ('Cc1c[nH]c2ncc(-c3nc(N4CCC5(COC5)C4)c4nc5n(c4n3)CCOC5(C)C)cc12 [Example 30]', 7.99);

Next item in the queue.
Given CCC(C)Oc1cc(-c2nc(N3CC(F)(F)C3)c3nc4n(c3n2)CCOC4(C)C)cnc1N (stereo not shown) [Example 72] , respond with its pKi.
6.64

----------
pKi values by entry
molecular target: DLK (Homo sapiens (Human), UniProt Q12852); experiment: DLK TR-FRET Inhibition Assay; details: N-terminally GST-tagged DLK (catalytic domain amino acid 1-520), MKK4 K131M substrate, 30 μM ATP; read-out: DLK HTRF Ki
Entry type: numeric. Quantity: pKi, the -log10 of concentration in molar units.

Observe how each entry below is paired with its result.
INSERT INTO assay_data (compound, numeric_readout) VALUES
  ('CC1(C)OCCn2c1nc1c(N3CC4CC3C[C@@H]4F)nc(-c3cnc(N)nc3)nc12 (single isomer, unassigned) [Example 143]', 6.65),
  ('CC1(C)OCCn2c1nc1c(N3CC(O)C3)nc(-c3cnc4[nH]cc(Cl)c4c3)nc12 [Example 40]', 8.23),
  ('Cc1cc(-c2nc(N3CC4CC3C4)c3nc4n(c3n2)CCOC4(C)C)cnc1N [Example 48]', 6.00);

Let us examine a further case.
Input CNc1ncc(-c2nc(N3CC4CC3C4)c3nc4n(c3n2)CCOC4(C)C)cn1 [Example 47] , output reported pKi.
5.89

----------
target: DLK (Homo sapiens (Human)); assay: DLK TR-FRET Inhibition Assay; settings: N-terminally GST-tagged DLK (catalytic domain amino acid 1-520), MKK4 K131M substrate, 30 μM ATP; read-out: DLK HTRF Ki
// reported Ki per item
Entry rule: numbers only, all in nM.

These solved cases illustrate the format of a correct answer.
INSERT INTO results (compound, endpoint_unit, numeric_readout) VALUES
  ('CN(C)c1nc(-c2cnc3[nH]cc(C#N)c3c2)nc2c1nc1n2CCCOC1', 'nM', 17.9),
  ('C[C@H]1COC(C)(C)c2nc3c(C4CC4)nc(-c4cnc(N)nc4)nc3n21 (single isomer, unassigned)', 'nM', 157);

For the compound CC1(C)OCCn2c1nc1c(N3CCC4(CCOC4)C3)nc(-c3cnc(N)nc3)nc12 (stereo not shown) , give its measured Ki value.
584

Could you please provide reported Ki for CC1(C)OCCn2c1nc1c(N3CC4(CCCO4)C3)nc(-c3cnc(N)nc3)nc12 ? Thanks!
907
